- assayedTarget: recombinant human prolyl oligopeptidase (PREP) (Homo sapiens (Human), UniProt P48147)
- Sequence (P48147 whole entry): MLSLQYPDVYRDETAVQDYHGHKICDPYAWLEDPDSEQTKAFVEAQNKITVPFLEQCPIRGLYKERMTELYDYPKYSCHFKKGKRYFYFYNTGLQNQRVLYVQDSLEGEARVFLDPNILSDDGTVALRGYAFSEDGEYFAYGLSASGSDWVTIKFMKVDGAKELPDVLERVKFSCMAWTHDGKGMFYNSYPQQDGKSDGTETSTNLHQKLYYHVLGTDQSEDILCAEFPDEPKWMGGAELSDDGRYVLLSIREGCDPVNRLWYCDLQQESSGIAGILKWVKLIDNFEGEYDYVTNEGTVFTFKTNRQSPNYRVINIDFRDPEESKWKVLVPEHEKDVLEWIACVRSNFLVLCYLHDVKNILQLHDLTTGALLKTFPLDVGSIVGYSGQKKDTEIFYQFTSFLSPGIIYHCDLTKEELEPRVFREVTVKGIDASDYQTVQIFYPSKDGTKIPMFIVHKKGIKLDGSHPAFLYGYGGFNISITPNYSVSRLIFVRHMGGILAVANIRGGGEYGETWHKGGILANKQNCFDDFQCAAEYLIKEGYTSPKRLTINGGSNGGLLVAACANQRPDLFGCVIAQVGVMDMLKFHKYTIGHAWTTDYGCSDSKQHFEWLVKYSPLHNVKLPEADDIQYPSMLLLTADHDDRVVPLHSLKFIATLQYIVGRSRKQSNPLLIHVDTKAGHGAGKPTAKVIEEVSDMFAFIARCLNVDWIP
- procedureSummary: In vitro IC50 assay, prolyl oligopeptidase (Example 15)
- Format: biochemical
- cond: Z-Gly-Pro-AMC, room temperature; read-out: PREP IC50
assayReadout: IC50 (µM)
Please give a number only; it is taken to be in µM.

Inquiry: Quick one: IC50 of (R)-DOTAGA(Ga)-Gly-Val-Dala-boroPro [Compound 6795DGA] ?
Reply text: 9.4

====

- assayedTarget: recombinant human fibroblast activation protein (FAP) (Homo sapiens (Human), UniProt Q12884)
- Sequence (Q12884 whole entry): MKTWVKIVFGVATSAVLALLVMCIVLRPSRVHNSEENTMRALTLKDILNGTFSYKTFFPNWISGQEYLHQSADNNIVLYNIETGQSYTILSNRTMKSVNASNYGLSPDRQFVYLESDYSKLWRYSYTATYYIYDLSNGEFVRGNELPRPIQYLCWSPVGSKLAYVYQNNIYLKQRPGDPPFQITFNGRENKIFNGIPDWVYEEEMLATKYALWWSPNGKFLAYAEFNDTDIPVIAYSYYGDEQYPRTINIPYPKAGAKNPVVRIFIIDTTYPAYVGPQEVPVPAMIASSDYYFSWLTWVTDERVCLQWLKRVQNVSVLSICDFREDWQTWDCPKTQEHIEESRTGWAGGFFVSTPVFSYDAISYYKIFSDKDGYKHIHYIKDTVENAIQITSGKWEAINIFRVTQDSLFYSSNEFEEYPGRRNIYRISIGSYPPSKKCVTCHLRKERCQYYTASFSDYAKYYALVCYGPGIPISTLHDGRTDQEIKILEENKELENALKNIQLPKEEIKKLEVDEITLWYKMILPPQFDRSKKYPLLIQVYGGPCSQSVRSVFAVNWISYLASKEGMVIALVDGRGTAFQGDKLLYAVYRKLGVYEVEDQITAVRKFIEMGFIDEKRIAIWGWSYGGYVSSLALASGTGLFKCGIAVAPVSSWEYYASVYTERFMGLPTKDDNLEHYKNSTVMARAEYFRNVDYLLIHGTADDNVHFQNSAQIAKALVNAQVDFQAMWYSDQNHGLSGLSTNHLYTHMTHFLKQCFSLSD
- procedureSummary: In vitro IC50 assay, fibroblast activation protein (Example 15)
- Format: biochemical
Here, each record is paired with measured pIC50 data.
A value of pIC50 is the negative decimal logarithm of a concentration given in moles per litre.

Below, 2 compounds whose answers are already recorded.
- CC(C)[C@H](NC(=O)CNC(=O)CC[C@H]1C(=O)[O][Lu]23[O]C(=O)CN4CCN(CCN1CCN(CC4)CC(=O)[O]2)CC(=O)[O]3)C(=O)N[C@H](C)C(=O)N1CCC[C@H]1B(O)O: 7.70
- C[C@@H](NC(=O)CN1CCN(CC(=O)O)CCN(CC(=O)O)CCN(CC(=O)O)CC1)C(=O)N1CCC[C@H]1B(O)O: 7.48

Inquiry: Quick one: pIC50 of CC(C)[C@H](NC(=O)CNC(=O)CNC(=O)CNC(=O)CCC(C(=O)O)N1CCN(CC(=O)O)CCN(CC(=O)O)CCN(CC(=O)O)CC1)C(=O)N[C@H](C)C(=O)N1CCC[C@H]1B(O)O (mixture of isomers) [Compound 6808, (R/S)-DOTAGA-(Gly)3-Val-Dala-boroPro] ?
Reply text: 7.94
